Target: T1, interleukin-23 receptor (IL-23R), Q5VWK5
T1 chain: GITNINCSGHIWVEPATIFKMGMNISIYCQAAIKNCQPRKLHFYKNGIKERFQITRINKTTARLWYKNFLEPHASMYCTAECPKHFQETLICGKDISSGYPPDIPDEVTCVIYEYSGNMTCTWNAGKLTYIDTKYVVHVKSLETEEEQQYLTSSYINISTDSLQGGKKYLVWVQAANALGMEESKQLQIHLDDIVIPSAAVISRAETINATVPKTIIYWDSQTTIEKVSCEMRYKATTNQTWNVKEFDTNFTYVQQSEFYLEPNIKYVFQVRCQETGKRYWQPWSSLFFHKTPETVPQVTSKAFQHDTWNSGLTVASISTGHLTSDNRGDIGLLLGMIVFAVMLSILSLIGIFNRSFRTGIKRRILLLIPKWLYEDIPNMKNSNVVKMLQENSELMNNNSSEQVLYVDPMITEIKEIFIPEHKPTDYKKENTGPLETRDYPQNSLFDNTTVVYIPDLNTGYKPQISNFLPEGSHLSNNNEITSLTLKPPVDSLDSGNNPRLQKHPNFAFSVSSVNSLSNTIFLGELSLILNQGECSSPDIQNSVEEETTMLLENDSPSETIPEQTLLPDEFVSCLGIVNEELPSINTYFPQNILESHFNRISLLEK
Assay: cell-based or functional assay
Starred links: 1 amine or outer side, 2 acyl side, 3 side chain; linkers in the order of their positions; H or OH if unused. Positions of bridges follow the written chain, without caps; N, C: chain ends. Non-standard residues stand in square brackets, D forms with d. No end group written: not given here. X1 = 3‑(7-(3-acetamidophenyl)-1H-indol-3-yl)‑2‑aminopropanoic acid, CC(=O)Nc1cccc(-c2cccc3c(CC(N[*:1])C(=O)[*:2])c[nH]c23)c1; X3 = 4‑(2-(4-(2-amino-2-carboxyethyl)phenoxy)ethyl)‑4‑methylmorpholin‑4‑ium, C[N+]1(CCOc2ccc(CC(N[*:1])C(=O)[*:2])cc2)CCOCC1; Phe(4-OMe) = COc1ccc(C[C@H](N[*:1])C(=O)[*:2])cc1; 2Nal(6-OH) = N[C@@H](Cc1ccc2cc(O)ccc2c1)C(=O)O; Trp(7-Me) = Cc1cccc2c(C[C@H](N)C(=O)O)c[nH]c12; AEF = NCCOc1ccc(C[C@H](N)C(=O)O)cc1; αMeF = C[C@](N)(Cc1ccccc1)C(=O)O; 3Pal = N[C@@H](Cc1cccnc1)C(=O)O; Pen = CC(C)(S)[C@H](N)C(=O)O; αMeK = C[C@](N)(CCCCN)C(=O)O; αMeC = C[C@](N)(CS)C(=O)O; Thp = NC1(C(=O)O)CCOCC1; Sar = CNCC(=O)O

{"columns": ["binder", "IL23R Reporter Assay IC50"],
 "data": [
  ["[Pen]NT[Trp(7-Me)]K(Ac)[Pen][X3][2Nal(6-OH)][Thp]EN[3Pal][Sar] (disulfide 1-6 (inferred); ends not checked) [SEQ ID NO: 56]", "< 10 nM"],
  ["R[Pen]NTWK(Ac)[Pen][X3][2Nal(6-OH)][Thp]EN[3Pal][Sar] (not fully specified (bridges); ends and bridges not checked) [SEQ ID NO: 73]", "< 10 nM"],
  ["[Pen]NT[X1]K(Ac)[Pen][AEF][2Nal(6-OH)][Thp]EN[3Pal][Sar] (disulfide 1-6 (inferred); ends not checked) [SEQ ID NO: 132]", "< 10 nM"],
  ["[Pen]NT[Trp(7-Me)]K(Ac)[Pen][AEF][2Nal(6-OH)][Thp]EN[3Pal][Sar] (ends and bridges not checked) [SEQ ID NO: 3]", "< 10 nM"],
  ["CNT[Trp(7-Me)]K(Ac)[αMeC][2‑amino‑3‑(4-(2-aminoethoxy)phenyl)propanoic acid][2‑amino‑3‑(6-hydroxynaphthalen-2-yl)propanoic acid][Thp]K(Ac)N[3Pal][Sar] (ends and bridges not checked) [SEQ ID NO: 5]", "< 10 nM"],
  ["[Pen]ET[Trp(7-Me)]K(Ac)[Pen][2‑amino‑3‑(4-(2-aminoethoxy)phenyl)propanoic acid][2‑amino‑3‑(6-hydroxynaphthalen-2-yl)propanoic acid][Thp]EN[3Pal][Sar] (not fully specified (bridges); ends and bridges not checked) [SEQ ID NO: 397]", "< 10 nM"],
  ["R[Pen]QTWQ[Pen][2‑amino‑3‑(4-(2-aminoethoxy)phenyl)propanoic acid][2‑amino‑3‑(6-hydroxynaphthalen-2-yl)propanoic acid][Thp]EN[Thp] (not fully specified (bridges); ends and bridges not checked) [SEQ ID NO: 430]", "> 100 nM"],
  ["R[Pen]NT[Trp(7-Me)]K(Ac)[Pen][2‑amino‑3‑(4-(2-aminoethoxy)phenyl)propanoic acid][2‑amino‑3‑(6-hydroxynaphthalen-2-yl)propanoic acid][Thp]K(Ac)N[3Pal][Sar] (disulfide 2-7 (inferred); ends not checked) [SEQ ID NO: 219]", "< 10 nM"],
  ["[Pen]NT[Trp(7-Me)]K(Ac)[Pen][AEF][2Nal(6-OH)][Thp]EN[3Pal][Sar] (not fully specified (bridges); ends and bridges not checked) [SEQ ID NO: 347]", "< 10 nM"],
  ["[(R)‑3‑carboxy‑2‑(4-(((R)-5-carboxy-5-hydrazineylpentyl)amino)-4-oxobutanamido)‑N,N,N‑trimethylpropan‑1‑aminium][Pen]NT[Trp(7-Me)]K(Ac)[Pen][AEF][2Nal(6-OH)][Thp]EN[3Pal][Sar] (not fully specified (bridges); ends and bridges not checked) [SEQ ID NO: 340]", "< 10 nM"],
  ["[Pen]NT[Trp(7-Me)]K(Ac)[Pen][Phe(4-OMe)][2Nal(6-OH)][αMeK]LN[3Pal][Sar] (not fully specified (bridges); ends and bridges not checked) [SEQ ID NO: 306]", "< 10 nM"],
  ["R[Pen]NT[Trp(7-Me)]K(Ac)[Pen][2‑amino‑3‑(4-(2-aminoethoxy)phenyl)propanoic acid][2‑amino‑3‑(5-carbamoylnaphthalen-2-yl)propanoic acid][Thp]EN[αMeF] (disulfide 2-7 (inferred); ends not checked) [SEQ ID NO: 439]", "> 100 nM"],
  ["[Pen]NT[Trp(7-Me)]K(Ac)[Pen][5‑(4-(2-amino-2-carboxyethyl)phenoxy)‑N,N,N‑trimethylpentan‑1‑aminium][2Nal(6-OH)][Thp]EN[3Pal][Sar] (not fully specified (bridges); ends and bridges not checked) [SEQ ID NO: 79]", "< 10 nM"]
]}
